- SYSTEM_TESTED: hMC-4R (Homo sapiens, UniProt P32245)
- Construct: expressed in transfected cells; host or cells: HEK293 cells (membrane preparations)
- Sequence (P32245 whole entry): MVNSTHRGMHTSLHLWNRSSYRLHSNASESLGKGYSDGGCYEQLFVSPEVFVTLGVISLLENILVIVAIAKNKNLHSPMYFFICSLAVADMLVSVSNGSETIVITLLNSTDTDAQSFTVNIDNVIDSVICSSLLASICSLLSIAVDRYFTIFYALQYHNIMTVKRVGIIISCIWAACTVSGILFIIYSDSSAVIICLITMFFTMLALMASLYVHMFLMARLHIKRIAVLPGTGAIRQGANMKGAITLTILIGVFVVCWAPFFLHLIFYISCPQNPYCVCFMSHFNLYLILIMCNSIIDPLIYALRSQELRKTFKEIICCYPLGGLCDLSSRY
- TEST_DETAILS: Functional assay: membrane based cAMP fluorescence polarization assay for agonistic activity
- Assay type: biochemical
- CONDITION_DESCRIPTION: read-out: % activation functional assay
Below: a set of entries, each annotated with reported Emax.
OUTCOME_MEASURE: Emax

* CC(C)CCN(CCC(C)C)C(=O)c1ccc2nc(C#N)c(C#CCN3CCCC3)n2c1 | 6%
* COc1ccc(Nc2nc3ccc(C(=O)N(CCC(C)C)CCC(C)C)cn3c2C#CCN2CCCC2)cn1 | -16%
* COc1ncc(-c2nc3ccc(C(=O)N(CCC(C)C)CCC(C)C)cn3c2C#CCN2CCCC2)cc1F | -9%
* CC(C)CCN(CCC(C)C)C(=O)c1ccc2ncc(C#CCN3CCCC3)n2c1 | 0%
* COc1cc(-c2nc3ccc(C(=O)N(CCC(C)C)CCC(C)C)cn3c2C#CCN2CCCC2)ccc1F | -2%

----------
- SYSTEM_TESTED: hMC-4R (Homo sapiens, UniProt P32245)
- Construct: expressed in transfected cells; host or cells: HEK293 cells (membrane preparations)
- TEST_DETAILS: Membrane binding assay: competition with fluorescence labeled NDP-alpha-MSH, fluorescence polarization
- CONDITION_DESCRIPTION: HEK293 cell membrane preparations expressing human melanocortin receptors; 5 h at room temperature; read-out: hMC-4R binding assay IC50
pIC50: −log10 of the molar value.
Below, each of the molecules is paired with its reported pIC50 value.
OUTCOME_MEASURE: pIC50

- CC(C)CCN(CCC(C)C)C(=O)c1ccc2nc(-c3ccc4nccnc4c3)c(C#CCN3CCCC3)n2c1: > 7.00
- CC(C)CCN(CCC(C)C)C(=O)c1ccc2nc(N3CCOCC3)c(C#CCN3CCCC3)n2c1: 6.00 to 7.00
- COc1cc(Nc2nc3ccc(C(=O)N(CCC(C)C)CCC(C)C)cn3c2C#CCN2CCCC2)ccn1: > 7.00
- COc1ncc(-c2nc3ccc(C(=O)N(CCC(C)C)CCC(C)C)cn3c2C#CCN2CCCC2)cn1: > 7.00

----------
Entries and their measured Emax follow.
- SYSTEM_TESTED: hMC-4R (Homo sapiens)
- Construct: expressed in transfected cells; host or cells: HEK293 cells (membrane preparations)
- TEST_DETAILS: Functional assay: membrane based cAMP fluorescence polarization assay for agonistic activity
- Type: biochemical
- CONDITION_DESCRIPTION: read-out: % activation functional assay
OUTCOME_MEASURE: Emax (%)

* COc1ccc(Nc2nc3ccc(C(=O)N(CCC(C)C)CCC(C)C)cn3c2C#CCN2CCCC2)cc1F | -12
* CC(C)CCN(CCC(C)C)C(=O)c1ccc2nc(-c3ccoc3)c(C#CCN3CCCC3)n2c1 | 3
* CC(C)CCN(CCC(C)C)C(=O)c1ccc2nc(-c3cnc4c(c3)OCCN4C)c(C#CCN3CCCC3)n2c1 | -5
* CC(C)CCN(CCC(C)C)C(=O)c1ccc2nc(-c3ccc(F)c(F)c3)c(C#CCN3CCCC3)n2c1 | 0
* CC(C)CCN(CCC(C)C)C(=O)c1ccc2nc(C3=CCN(C(=O)OC(C)(C)C)CC3)c(C#CCN3CCCC3)n2c1 | -11
* CC(C)CCN(CCC(C)C)C(=O)c1ccc2nc(-c3ccc(C#N)c(F)c3)c(C#CCN3CCCC3)n2c1 | -4
* CC(C)CCN(CCC(C)C)C(=O)c1ccc2nc(-c3ccccc3)c(C#CCN3CCCC3)n2c1 | 0
